Recorded values, source patent US20250281424A1.

Would you kindly list inhibition at 10 µM for each of these compounds?
assay-target: human PF4 (Homo sapiens, UniProt P02776)
Construct: PF4 is a 70 amino acid, lysine-rich 7.8 kDa platelet-specific protein; made in house; host or cells: Escherichia coli BL21DE3 pLysS (pT7-7) and/or Drosophila S2 cells
Sequence (P02776 32-101): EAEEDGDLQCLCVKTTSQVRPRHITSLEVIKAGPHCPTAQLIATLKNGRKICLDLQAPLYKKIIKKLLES
protocol-details: Inhibition of PF4 tetramer formation (BS3 cross-linking, SDS-PAGE)
Type: biochemical
condition-notes: 10 μM inhibitor (column A); read-out: % inhibition of PF4 tetramer formation at single concentration of inhibitor
Answers are plain numbers, in %.

Example cases with answers are listed next.
compound	assay-target	number
COCCC(=O)C1C(=O)c2ccc(C(=O)c3ccc4c(c3)C(=O)C(C(=O)CCOC)C4=O)cc2C1=O (stereo not shown)	human PF4 (Homo sapiens, UniProt P02776)	77
CC(=O)NCC(=O)C1C(=O)c2ccc(S(=O)(=O)c3ccc4c(c3)C(=O)C(C(=O)CNC(C)=O)C4=O)cc2C1=O (stereo not shown)	human PF4 (Homo sapiens, UniProt P02776)	97
COC(=O)CCCC(=O)C1C(=O)c2ccc(-c3ccc4c(c3)C(=O)C(C(=O)CCCC(=O)OC)C4=O)cc2C1=O (stereo not shown)	human PF4 (Homo sapiens, UniProt P02776)	92

Query: Reported inhibition at 10 µM, compound COc1ccccc1NC(=O)C1C(=O)c2ccc(S(=O)(=O)c3ccc4c(c3)C(=O)C(C(=O)Nc3ccccc3OC)C4=O)cc2C1=O (stereo not shown) : ____
Result: 85

----------
Exercise: state measured inhibition at 10 µM for each of the compounds provided.
assay-target: human PF4 (Homo sapiens)
Construct: PF4 is a 70 amino acid, lysine-rich 7.8 kDa platelet-specific protein; made in house; host or cells: Escherichia coli BL21DE3 pLysS (pT7-7) and/or Drosophila S2 cells
protocol-details: Inhibition of PF4 tetramer formation (BS3 cross-linking, SDS-PAGE)
Type: biochemical
condition-notes: 10 μM inhibitor (column A); read-out: % inhibition of PF4 tetramer formation at single concentration of inhibitor
Give bare numbers, in %.

For orientation, consider the following solved cases.
compound	assay-target	inhibition at 10 µM, %
CO[C@@H](C(=O)C1C(=O)c2ccc(C(=O)c3ccc4c(c3)C(=O)C(C(=O)[C@H](OC)c3ccccc3)C4=O)cc2C1=O)c1ccccc1 (stereo partly drawn)	human PF4 (Homo sapiens)	90
O=C(NC1CC1)C1C(=O)c2ccc(-c3ccc4c(c3)C(=O)C(C(=O)NC3CC3)C4=O)cc2C1=O (stereo not drawn)	human PF4 (Homo sapiens)	87

Dear colleague, could you send me inhibition at 10 µM for each of the items below? Thanks.
1. O=C(NC1CC1)C1C(=O)c2ccc(S(=O)(=O)c3ccc4c(c3)C(=O)C(C(=O)NC3CC3)C4=O)cc2C1=O (stereo not drawn)
2. O=C(CN1CCCC1=O)C1C(=O)c2ccc(S(=O)(=O)c3ccc4c(c3)C(=O)C(C(=O)CN3CCCC3=O)C4=O)cc2C1=O (stereo not drawn)
3. CC(C)(C)OC(=O)N[C@@H](Cc1ccccc1)C(=O)C1C(=O)c2ccc(S(=O)(=O)c3ccc4c(c3)C(=O)C(C(=O)[C@H](Cc3ccccc3)NC(=O)OC(C)(C)C)C4=O)cc2C1=O (stereo partly drawn)

Result:
81
95
100

Query: Looking for the measured inhibition at 10 µM of O=C(c1ccc2c(c1)C(=O)C(C(=O)C1CCN(C(=O)OCc3ccccc3)C1)C2=O)c1ccc2c(c1)C(=O)C(C(=O)C1CCN(C(=O)OCc3ccccc3)C1)C2=O (stereo not drawn) , can you help?
Result: 90

----------
assay-target: ultra large complexes (ULC) between PF4 tetramers and heparin (Homo sapiens)
Construct: platelet factor 4 which is a 70 amino acid, lysine-rich, 7.8 kDa platelet-specific protein
protocol-details: Inhibition of formation of ultra large complexes (ULC) of PF4 tetramers and heparin
condition-notes: IC50 values are +/−20%
readout-kind: IC50 (µM)
Answers are plain numbers, in µM.

molecule	output-unit	IC50
CC(=O)C1(C(=O)OC(C)(C)C)C(=O)c2ccc(Oc3ccc4c(c3)C(=O)C(C(C)=O)(C(=O)OC(C)(C)C)C4=O)cc2C1=O (centres unmarked)	µM	10
CCCNC(=O)C1C(=O)c2ccc(C(=O)c3ccc4c(c3)C(=O)C(C(=O)NCCC)C4=O)cc2C1=O (centres unmarked)	µM	11
O=C(c1ccc2c(c1)C(=O)CC2=O)c1ccc2c(c1)C(=O)CC2=O	µM	3
CC(=O)C1C(=O)c2ccc(C(=O)c3ccc4c(c3)C(=O)C(C(C)=O)C4=O)cc2C1=O (centres unmarked)	µM	8

Let's switch to this molecule now.
Query: What measured IC50 goes with CCOC(=O)C1C(=O)c2ccc(C(=O)c3ccc4c(c3)C(=O)C(C(=O)OCC)C4=O)cc2C1=O (centres unmarked) ?
Result: 2

----------
assay-target: human PF4 (Homo sapiens)
Construct: PF4 is a 70 amino acid, lysine-rich 7.8 kDa platelet-specific protein; made in house; host or cells: Escherichia coli BL21DE3 pLysS (pT7-7) and/or Drosophila S2 cells
protocol-details: Inhibition of PF4 tetramer formation (BS3 cross-linking, SDS-PAGE)
Type: biochemical
condition-notes: 10 μM inhibitor (column A); read-out: % inhibition of PF4 tetramer formation at single concentration of inhibitor
Exercise: for every item that follows, state its recorded inhibition at 10 µM.
Give bare numbers, in %.

Example entries begin here.
compound	output-unit	inhibition at 10 µM
COCCC(=O)C1C(=O)c2ccc(S(=O)(=O)c3ccc4c(c3)C(=O)C(C(=O)CCOC)C4=O)cc2C1=O (stereo not drawn) [Example 177]	%	17
CC(C)(C)OC(=O)N1CSC[C@@H]1C(=O)C1C(=O)c2ccc(S(=O)(=O)c3ccc4c(c3)C(=O)C(C(=O)[C@H]3CSCN3C(=O)OC(C)(C)C)C4=O)cc2C1=O (stereo partly drawn) [Example 221]	%	97

// input: 5 compounds below; output: inhibition at 10 µM for each
1. COc1cccc(NC(=O)C2C(=O)c3ccc(C(=O)c4ccc5c(c4)C(=O)C(C(=O)Nc4cccc(OC)c4)C5=O)cc3C2=O)c1 (stereo not drawn) [Example 23]
2. COc1ccccc1NC(=O)C1C(=O)c2ccc(C(=O)c3ccc4c(c3)C(=O)C(C(=O)Nc3ccccc3OC)C4=O)cc2C1=O (stereo not drawn) [Example 28]
3. CSCCCC(=O)C1C(=O)c2ccc(Oc3ccc4c(c3)C(=O)C(C(=O)CCCSC)C4=O)cc2C1=O (stereo not drawn) [Example 283]
4. O=C(c1ccc2c(c1)C(=O)C(C(=O)Cn1cnnn1)C2=O)c1ccc2c(c1)C(=O)C(C(=O)Cn1cnnn1)C2=O (stereo not drawn) [Example 168]
5. CCCC(=O)C1C(=O)c2ccc(S(=O)(=O)c3ccc4c(c3)C(=O)C(C(=O)CCC)C4=O)cc2C1=O (stereo not drawn) [Example 322]

Result:
1. 92
2. 65
3. 86
4. 89
5. 40

----------
assay-target: human PF4 (Homo sapiens)
Construct: PF4 is a 70 amino acid, lysine-rich 7.8 kDa platelet-specific protein; made in house; host or cells: Escherichia coli BL21DE3 pLysS (pT7-7) and/or Drosophila S2 cells
protocol-details: Inhibition of PF4 tetramer formation (BS3 cross-linking, SDS-PAGE)
Type: biochemical
condition-notes: 5 μM inhibitor; read-out: % inhibition of PF4 tetramer formation at single concentration of inhibitor
readout-kind: inhibition at 5 µM (%)
Answers are plain numbers, in %.

Use these answered entries as a reference point.
compound	inhibition at 5 µM (%)
CC(C)(C)CC(=O)NCC(=O)C1C(=O)c2ccc(S(=O)(=O)c3ccc4c(c3)C(=O)C(C(=O)CNC(=O)CC(C)(C)C)C4=O)cc2C1=O (stereo not drawn)	95
CC(C)(C)OC(=O)NCCC(=O)C1C(=O)c2ccc(C(=O)c3ccc4c(c3)C(=O)C(C(=O)CCNC(=O)OC(C)(C)C)C4=O)cc2C1=O (stereo not drawn)	87

For the next question, use this compound.
Query: I am curious: what inhibition at 5 µM value has been reported for O=C(c1ccc2c(c1)C(=O)C(C(=O)Cn1cnnn1)C2=O)c1ccc2c(c1)C(=O)C(C(=O)Cn1cnnn1)C2=O (stereo not drawn) ?
Result: 68

----------
assay-target: human PF4 (Homo sapiens, UniProt P02776)
Construct: PF4 is a 70 amino acid, lysine-rich 7.8 kDa platelet-specific protein; made in house; host or cells: Escherichia coli BL21DE3 pLysS (pT7-7) and/or Drosophila S2 cells
protocol-details: Inhibition of PF4 tetramer formation (BS3 cross-linking, SDS-PAGE)
Type: biochemical
condition-notes: read-out: IC50 of PF4 tetramer formation inhibition
Response field label takes Satisfied when IC50 is strictly below 2000 nM and Not satisfied in all other cases.

Solved entries:
molecule	cat
CC(=O)NCC(=O)C1C(=O)c2ccc(C(=O)c3ccc4c(c3)C(=O)C(C(=O)CNC(C)=O)C4=O)cc2C1=O (stereo not drawn)	Satisfied
COC(=O)C(C)(C)CC(=O)C1C(=O)c2ccc(C(=O)c3ccc4c(c3)C(=O)C(C(=O)CC(C)(C)C(=O)OC)C4=O)cc2C1=O (stereo not drawn)	Not satisfied
CSCC(=O)C1C(=O)c2ccc(S(=O)(=O)c3ccc4c(c3)C(=O)C(C(=O)CSC)C4=O)cc2C1=O (stereo not drawn)	Not satisfied
CC(C)(C)OC(=O)N1C[C@H](F)C[C@H]1C(=O)C1C(=O)c2ccc(-c3ccc4c(c3)C(=O)C(C(=O)[C@@H]3C[C@@H](F)CN3C(=O)OC(C)(C)C)C4=O)cc2C1=O (stereo partly drawn)	Not satisfied
CC[C@H](NC(=O)OCc1ccccc1)C(=O)C1C(=O)c2ccc(C(=O)c3ccc4c(c3)C(=O)C(C(=O)[C@H](CC)NC(=O)OCc3ccccc3)C4=O)cc2C1=O (stereo partly drawn)	Not satisfied

Query: Just wondering, is IC50 of CC(=O)NCC(=O)C1C(=O)c2ccc(S(=O)(=O)c3ccc4c(c3)C(=O)C(C(=O)CNC(C)=O)C4=O)cc2C1=O (stereo not drawn) below 2000 nM?
Result: Satisfied
